# Assay target: Rvs167, P39743
# Sequence (P39743 419-482): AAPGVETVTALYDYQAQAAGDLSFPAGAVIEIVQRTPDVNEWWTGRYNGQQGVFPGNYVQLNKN
# Protocol: SPOT array
# Recorded conditions: median of control spots 2707
Criterion met if SPOT intensity is below 2. Criterion not met if not; exact matches included in Criterion not met.

[[record]]
binder = "AATTSTPPLPRRRAT"
class_assignment = "Criterion not met"

[[record]]
binder = "KDKSRPPRPPPKPLH"
class_assignment = "Criterion met"

[[record]]
binder = "PPIPNAPLSPAPAVP"
class_assignment = "Criterion met"

[[record]]
binder = "IKKRNKIRLPSGSPE"
class_assignment = "Criterion not met"

[[record]]
binder = "NRPAIRIPSLKKPAL"
class_assignment = "Criterion met"

[[record]]
binder = "ATKSASPTLPTRRSR"
class_assignment = "Criterion not met"

[[record]]
binder = "RRASLFPRDPKRLRP"
class_assignment = "Criterion met"

[[record]]
binder = "QLMKNLPKIPLLNDI"
class_assignment = "Criterion met"


## Task # check: SPOT intensity < 2 for QNTPPLPPKPKSPHL
## Result Criterion not met

## Task # check: SPOT intensity < 2 for VGFRLALKFPSRITG
## Result Criterion not met

## Task # check: SPOT intensity < 2 for NRARYLPQNPDIIAG
## Result Criterion met

## Task # check: SPOT intensity < 2 for IHTRRPSSTSQYLIR
## Result Criterion met

These entries and their values trace back to paper PMC2756588.
